# System: NCI/ADR-RES ovarian
# Assay protocol: NCI-60 one-dose screen, 48 h (100 = growth as untreated, 0 = no growth, -100 = all killed)
# Condition description: 10 µM unless noted
The panel holds about 83,000 compounds, 20% with a hit somewhere; the sample as a whole holds those more often.
Classify as follows. Reported growth greater than or equal to 90%: Yes. Reported growth below: No.

Below, 4 molecules whose answers are already recorded.
CCCC(=O)OCC1OC(n2cnc3c(=S)nc(N)[nH]c32)C(OC(=O)CCC)C1OC(=O)CCC (stereo not given) | No
CCc1cc2c(c3ccc(C(=O)CBr)cc13)CCCC2 | Yes
COc1cc(NCCCN)c2ncccc2c1 | No
COc1ccc2nc3cc(Cl)ccc3c(Nc3ccc(N(C)C)cc3)c2c1 | No

For the next question, use this molecule.
Prompt line: Identify whether the reported growth of the following molecule is 90% or greater: COC(=O)C1CCc2sc3ncnc(Nc4cn[nH]c4C(=O)Nc4ccc(CN5CCN(C)CC5)cc4)c3c21 (stereo not given)
Response line: No

====

# Tested on: MOLT-4 leukemia
# Assay protocol: NCI-60 one-dose screen, 48 h (100 = growth as untreated, 0 = no growth, -100 = all killed)
# Condition description: 10 µM unless noted
Compounds without any hit were thinned out: in the full panel of roughly 83,000, 20% have a hit.
Measurement name: growth (%)
The answer is to be given in %; state only the numeric part.

These recorded examples may help you get a feel for the data.
COc1cc2c3c(c1)nc(C)n3CCC2 | 98.4
CNC(=O)c1cc(Oc2ccc3nc(NC(=O)Nc4ccc(Cl)c(C(F)(F)F)c4)sc3c2)ccn1 | 38
CC(=O)c1c(C)c2cnc(Nc3ccc(N4CCNCC4)cn3)nc2n(C2CCCC2)c1=O | 11

Prompt line: Report growth for COc1cc(-c2nc(C(=O)NCC(=O)O)nn2-c2ccc(Cl)cc2)cc(OC)c1OC please.
Response line: 100

Prompt line: Report growth for COc1cc2nccc(Oc3ccc(NC(=O)C4(C(=O)Nc5ccc(F)cc5)CC4)cc3)c2cc1OC please.
Response line: 11.6

Prompt line: Report growth for COc1ccc(-c2nc(N)ncc2Oc2ccccc2OC)c(O)c1 please.
Response line: 26.9

Prompt line: Report growth for O=C(Nc1ccc(-c2ccnc(Nc3ccc(N4CCOCC4)cc3)n2)cc1)[C@@H]1CCCN1 please.
Response line: 21.7

Prompt line: Report growth for C/C(=C(/c1ccc(Cl)cc1)c1ccc(OCCN2CCCC2)cc1)c1ccccc1 please.
Response line: 68.7

Prompt line: Report growth for CC(=O)OC1Oc2ccccc2-c2oc(=O)c(-c3cc4ccc(N(C)C)cc4oc3=O)cc21 (stereo not drawn) please.
Response line: -28.3

Prompt line: Report growth for COc1cc2nc(Nc3cccc(Cl)c3)nc(N)c2cc1OC please.
Response line: 53.7

Prompt line: Report growth for COC[C@@H](C)n1c(C2CCOCC2)nc2c1C1C=C(OC)C(c3c(C)noc3C)=CC1N=C2 (stereo partly drawn) please.
Response line: 59

Prompt line: Report growth for CCOc1cc2ncc(C#N)c(Nc3ccc(F)c(Cl)c3)c2cc1NC(=O)/C=C/CN(C)C please.
Response line: -26

Prompt line: Report growth for COc1cc2c(cc1OCCCCN1CCN(CC(=O)Nc3ccc(Cl)cc3C(=O)c3ccccc3Cl)CC1)N=CC1CCCN1C2=O (stereo not drawn) please.
Response line: -44.7

Prompt line: Report growth for O=C(COc1cccc(/C=C2\Cc3ccc(Cl)cc3C2=O)c1)Nc1nccs1 please.
Response line: 37.3
